# EXPERIMENT NOTES: Long-term stability in spiked pooled human plasma
# TEST CONDITIONS: validation standard LLOV
REPORTED ENDPOINT: Long-term stability, 3 month, -20°C Accuracy [%] (%)
Answers are plain numbers, in %.

Solved entries:
C[C@@H](Oc1cc(-c2cnn(C3CCNCC3)c2)cnc1N)c1c(Cl)ccc(F)c1Cl ... 72.6
C=CC(=O)Nc1cc(Nc2nccc(-c3cn(C)c4ccccc34)n2)c(OC)cc1N(C)CCN(C)C ... 66.7
Cc1c(C(=O)Nc2ccc(N3C[C@@H](C)O[C@@H](C)C3)nc2)cccc1-c1ccc(OC(F)(F)F)cc1 ... 103.1
Cc1nc(Nc2ncc(C(=O)Nc3c(C)cccc3Cl)s2)cc(N2CCN(CCO)CC2)n1 ... 81.3
CS(=O)(=O)CCNCc1ccc(-c2ccc3ncnc(Nc4ccc(OCc5cccc(F)c5)c(Cl)c4)c3c2)o1 ... 55.4

Parameter requested: Long-term stability, 3 month, -20°C Accuracy [%]. Apply to each item below.
1. COc1cc2ncnc(Nc3ccc(F)c(Cl)c3)c2cc1NC(=O)/C=C/CN1CCCCC1
2. COC(=O)N[C@@H](C)CNc1nccc(-c2cn(C(C)C)nc2-c2cc(Cl)cc(NS(C)(=O)=O)c2F)n1

Response:
1: 83.4; 2: 96.1
